Here the recorded pKi is given for each entry.
- TARGET_ENTITY: T1, Human EphA2 (Ecto) (Human, UniProt P29317 24-537)
- T1 construct: extracellular domain
- METHOD_DESCRIPTION: FP competition; competitor Compound 66
Numbered stars: 1 amine (or outer) side, 2 acyl side, 3 side chain; on linkers, the order of the positions; unused ones are H or OH. Bridge positions count the residues as written; N and C are the ends. Square brackets hold non-standard residues; d marks the D form. Ends that are not written are not given here. 1Nal = N[C@@H](Cc1cccc2ccccc12)C(=O)O; TBMB = c1c(C[*:1])cc(C[*:3])cc1C[*:2]; Tle = CC(C)(C)[C@H](N)C(=O)O; Aib = CC(C)(N)C(=O)O; Sar = CNCC(=O)O
Scale explanation: pKi corresponds to minus log10 of a concentration expressed in moles per litre.

// below: answered binders
{"columns": ["BINDER", "pKi"],
 "data": [
  ["[Sar][Sar]AC[Aib][1Nal]G[Aib]FWCPVNR[Aib]GC (linker 4-11-18 via TBMB) [Compound 135]", 7.52],
  ["ACVPQGIWCALQFEPCA (linker 2-9-16 via TBMB) [Compound 63]", 7.08],
  ["[Sar][Sar]ACPWGPFWCPVNRPAC (linker 4-11-18 via TBMB) [Compound 111]", 6.62],
  ["ACPWGPMWCPVNRPGCA (linker 2-9-16 via TBMB) [Compound 46]", 7.02]
]}

Which pKi value is on record for [Sar][Sar]ACP[1Nal]GPFWCP[Tle]NRPGC (linker 4-11-18 via TBMB) [Compound 121] ?
8.70

# query: pKi of entry [Sar][Sar]ACPWGPAWCPVNRPGC (linker 4-11-18 via TBMB) [Compound 83]
6.54
